Reported z-score values for the following compounds.
test: basal 3T3-L1 adipocyte mitochondrial potential changes, profiling panel, cell-based, JC-1 fluorescence, 3T3-L1 adipocytes, 24 h, 100 nL compound (AID 1168); conditions: JC-1 mitochondrial fluorescence, higher = more signal, called active from +8 up or from −8 down; further: test concentration not given here
Experimental Endpoint: z-score

| Compound | Measured Number |
| --- | --- |
| COc1ccccc1CN1C(=O)c2ccccc2[C@@H](C(=O)NC(C)C)[C@@H]1c1ccc(CO)cc1 | -0.41 |
| COc1ccc([Si](C)(C)[C@@H]2[C@@H](CCn3cc([C@H](O)c4ccccc4)nn3)O[C@]3(C(=O)N(Cc4ccc(N5CCOC5=O)cc4)c4ccccc43)[C@H]2C)cc1 | 0.00306 |
| CN1C(=O)C2C=CC(C(O)C3CCCCC3)N(N3CCCCC3)C2C1=O (stereo not given) | -0.347 |
| CN(C)CCCCNC(=O)[C@H]1C[C@H]2C(=O)N3CCC[C@H]3C(=O)N2[C@H]1c1ccc(O)cc1 | -0.104 |
| CN(C)CCCNC(=O)[C@@H]1c2ccccc2C(=O)N(Cc2ccc(OC(F)(F)F)cc2)[C@H]1c1ccc(CO)cc1 | -0.463 |
| [N-]=[N+]=NCc1ccccc1C[C@@]1(C(N)=O)N=C(c2ccc(OCCCO)cc2)O[C@@H]1c1ccccc1CN=[N+]=[N-] | -0.301 |
| COC(=O)C[C@H]1O[C@]2(C(=O)N(C)c3ccccc32)[C@@H](C)[C@@H]1[Si](C)(C)c1ccc(C)cc1 | 0.329 |
| COCCOC(=O)N1C(=O)[C@@]2(c3cc(C#CC4(O)CCCCCC4)ccc31)[C@H](C(N)=O)[C@H]1C(=O)O[C@H](c3ccccc3)[C@H](c3ccccc3)N1[C@@H]2c1ccccc1OCCO | 1.57 |
| CCOC(=O)C1=CC[C@@H](c2ccc([N+](=O)[O-])cc2)N(S(=O)(=O)c2ccc(C)cc2)[C@H]1c1ccccc1 | -0.233 |
| C=CCN1C(=O)[C@@]2(O[C@@H](CCO)[C@H]([Si](C)(C)c3ccc(OC)cc3)[C@H]2C)c2cc(N3C(=O)c4ccccc4Oc4ccccc43)ccc21 | 1.07 |
